assay: Solubility study in FaSSIF and SGF (saturated solutions, HPLC); assay type: physicochemical; conditions: FaSSIF, thermodynamic from solid, FaSSIF, 4 h; read-out: Solubility FaSSIF

compound	result units	solubility at 4 h
COc1cc(N2CCC(N3CCN(C)CC3)CC2)ccc1Nc1ncc(Cl)c(Nc2ccccc2P(C)(C)=O)n1 [Form CS2, AP26113]	µg/mL	9600
